experiment: NCI Yeast Anticancer Drug Screen. Data for the bub3 strain (AID 167); conditions: S. cerevisiae bub3 mutant strain, at 33.0 µM, hits give high values
About 79,000 compounds went through this panel and 15% of them were active in at least one assay; those are over-represented in the sample as a whole.
Measured growth inhibition by item
Express the result in % but write the number alone.

See these solved cases before continuing.
CN(CCOc1ccc(Cl)cc1)CCOc1ccc(Cl)cc1 :: 97
c1cc(-c2sc(-c3ccncc3)c(-c3ccncc3)c2-c2ccncc2)ccn1 :: 54
CC1CCC(C2=CSC3CCCCC3N2)CC1 (stereo unspecified) :: 29
CC1(C)C(O)OC(O)C1(C)C (stereo unspecified) :: -8
O=C(C(Cl)=C(N1CCCCC1)N1CCCCC1)C(Cl)Cl :: 4

Measured growth inhibition of CCN1CCC(O)(c2ccc(Oc3ccc(Cl)cc3)cc2)C(C(=O)c2ccc(Oc3ccc(Cl)cc3)cc2)C1 (stereo unspecified) : 39

###

Measured growth inhibition by item
assay: NCI Yeast Anticancer Drug Screen. Data for the rad50EPP+ strain (AID 151);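 further: 0% = growth of vehicle-treated control cultures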; details: S. cerevisiae rad50 mutant strain, at 11.0 µM, hits give high values
About 79,000 compounds went through this panel and 15% of them were active in at least one assay; those are over-represented in the sample as a whole.
Express the result in % but write the number alone.

See these solved cases before continuing.
OC(CC(O)(C(F)(F)F)C(F)(F)F)c1ccc(C(O)CC(O)(C(F)(F)F)C(F)(F)F)cc1 (stereo unspecified) :: 9
Cc1cc(OCc2nc(N)nc(N)c2-c2ccc(Cl)c(Cl)c2)ccc1[N+](=O)[O-] :: -1

Here is the next item to consider.
Measured growth inhibition of CCOC(=O)C(Cc1c2ccccc2cc2ccccc12)(NC(C)=O)C(=O)OCC : 6

###

test: NCI Yeast Anticancer Drug Screen. Data for the rad50EPP+ strain (AID 151);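 further: 0% = growth of vehicle-treated control cultures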; conditions: S. cerevisiae rad50 mutant strain, at 1.2 µM, hits give high values
The panel holds about 79,000 compounds, 15% with a hit somewhere; the sample as a whole holds those more often.
Measured growth inhibition by item
Express the result in % but write the number alone.

See these solved cases before continuing.
O=C(Nc1ccc(Cl)cc1)c1cc2cc(N=Nc3ccccc3Cl)ccc2oc1=O :: 39
O=C(O)c1ccccc1C(=O)OC1CCc2ccccc2C1 (stereo not given) :: 0

Measured growth inhibition of c1ccc([P+](CCN2Cc3ccccc3C2)(c2ccccc2)c2ccccc2)cc1 : -21

Measured growth inhibition of Cc1ccc(S(=O)(=O)NC(=O)C2C(=O)CC3(CCCCC3)CC2=O)cc1 : -3

Measured growth inhibition of COc1cc([C@@H]2c3cc4c(cc3[C@@H](NC(=O)NO)[C@H]3COC(=O)[C@H]23)OCO4)cc(OC)c1O : -2

Measured growth inhibition of Nc1cc(Cl)ccc1Nc1ccccc1 : -58

Measured growth inhibition of O=C1CSC(c2ccccc2)N1c1ccc(-c2ccc(-n3c(-c4ccccc4)nc4ccccc4c3=O)cc2)cc1 (stereo not given) : 3

Measured growth inhibition of Nc1cc2c(cc1N)-c1ccccc1C2=O : 1

Measured growth inhibition of CCCCN(CCC#N)c1ccc(/C=C/c2ccnc3ccccc23)cc1 : -3

Measured growth inhibition of COc1cc2c(cc1O)[C@H](C)C(c1ccccc1OC)O2 (stereo not given in full) : -39

###

assay: NCI Yeast Anticancer Drug Screen. Data for the bub3 strain (AID 167); settings: S. cerevisiae bub3 mutant strain, at 5.0 µM (retest, dose inferred, filed as 0.5), hits give high values
The panel holds about 79,000 compounds, 15% with a hit somewhere; the sample as a whole holds those more often.
We use 20% as the dividing line for growth inhibition: on or above the line is rule met, below is rule not met.

Example entries begin here.
C=COC(=O)N[C@H]1CCc2cc(OC)c(OC)c(OC)c2-c2ccc(SC)c(=O)cc21 :: rule not met
O=C1C=C(Br)C(=O)c2ccccc21 :: rule met
ClCCCOc1c(Cl)cc(Cl)cc1Cl :: rule not met
CC(C)(Br)C(=O)/C=C/c1ccccc1 :: rule not met

Request: # check: growth inhibition of CN(C)CCNc1ccc2ncn3c4ccc(O)cc4c(=O)c1c23 is greater than or equal to 20%
Result: rule not met

Request: # check: growth inhibition of Cc1cccc2c(Cl)c3cccc(C)c3nc12 is greater than or equal to 20%
Result: rule not met
